- subject-of-test: T1, extracellular domain (ECD) of human CD47 (19aa-139aa) with C-terminal 6xHis tag (human, UniProt Q08722 19-139)
- T1 construct: also called recombinant CD47; recombinant human CD47
- assay-text: ELISA, recombinant human CD47; EC50 as grade, legend the 11th table, row 38
readout: EC50

1. hu.18B9.3i LC_S94A (antibody, name in Kabat numbering, V domains shown, Alanine scan variant of hu.18B9.3i; Kabat numbering) VH: EVQLVESGGGLVQPGGSLRLSCAASGFSFNSGYMSWVRQAPGKGLEWIASIYAGSSGKTYYADWAKGRFTISKTSSKTTVYLQMNSLRAEDTAVYYCARDSGGTYYTDYLYLWGQGTLVTVSS VL: DIQMTQSPSSLSASVGDRVTITCRASEGISSYLSWYQQKPGKAPKLLIYKASTLTSGVPSRFSGSGSGTDFTLTISSLQPEDFATYYCQSTYGASGSSGYGAAFGGGTKVEIK | 10 to 500 pM
2. hu.18B9.3i LC_T91A (antibody, name in Kabat numbering, V domains shown, Alanine scan variant of hu.18B9.3i; Kabat numbering) VH: EVQLVESGGGLVQPGGSLRLSCAASGFSFNSGYMSWVRQAPGKGLEWIASIYAGSSGKTYYADWAKGRFTISKTSSKTTVYLQMNSLRAEDTAVYYCARDSGGTYYTDYLYLWGQGTLVTVSS VL: DIQMTQSPSSLSASVGDRVTITCRASEGISSYLSWYQQKPGKAPKLLIYKASTLTSGVPSRFSGSGSGTDFTLTISSLQPEDFATYYCQSAYGSSGSSGYGAAFGGGTKVEIK | 10 to 500 pM
3. hu.18B9.3i LC_S90A (antibody, name in Kabat numbering, V domains shown, Alanine scan variant of hu.18B9.3i; Kabat numbering) VH: EVQLVESGGGLVQPGGSLRLSCAASGFSFNSGYMSWVRQAPGKGLEWIASIYAGSSGKTYYADWAKGRFTISKTSSKTTVYLQMNSLRAEDTAVYYCARDSGGTYYTDYLYLWGQGTLVTVSS VL: DIQMTQSPSSLSASVGDRVTITCRASEGISSYLSWYQQKPGKAPKLLIYKASTLTSGVPSRFSGSGSGTDFTLTISSLQPEDFATYYCQATYGSSGSSGYGAAFGGGTKVEIK | 10 to 500 pM
